Test system: IFNα-Induced STAT Phosphorylation in Human Whole Blood
Experiment: IFNα-Induced STAT Phosphorylation in Human Whole Blood
Format: cell-based
Details: 1 h incubation with compound, 1000 U/mL recombinant human IFNα A/D for 15 min, pSTAT5 (pY694) median fluorescence intensity in CD3 positive population, read-out: hWB IC50
property: IC50 (µM)

compound | IC50, µM
[2H]C([2H])([2H])NC(=O)c1nnc(Nc2ccc(C(C)(C)O)cn2)cc1Nc1cc(F)cc(-c2ncccn2)c1OC [Example 104] | 0.041

[P] [2H]C([2H])([2H])NC(=O)c1cnc(Nc2cnc(C#N)cn2)cc1Nc1cccc(-c2ncccn2)c1OC [Example 72]
[Q] [2H]C([2H])([2H])NC(=O)c1nnc(NC(=O)C2CC2)cc1Nc1cccc(-c2ncc(N3CCCC3=O)cn2)c1OC [Example 112]
Higher IC50 between P and Q ? Choose, then provide that item's label.
P
(P: 0.168 µM, Q: 0.027 µM)

[I] [2H]C([2H])([2H])NC(=O)c1cnc(Nc2cc(C)n(C)n2)cc1Nc1cccc(-c2ncc(F)cn2)c1OC [Example 63]
[II] [2H]C([2H])([2H])NC(=O)c1nnc(NC(=O)C2CC2)cc1Nc1cccc(-c2ncc(C(=O)N3CCC3)cn2)c1OC [Example 48]
Among I and II , which shows a numerically higher IC50 result? Reply with the label of the item you choose.
II

[a] [2H]C([2H])([2H])NC(=O)c1cnc(Nc2ccn(C3CC3)n2)cc1Nc1cccc(-c2ncc(F)cn2)c1OC [Example 68]
[b] [2H]C([2H])([2H])NC(=O)c1cnc(Nc2ccccn2)cc1Nc1cccc(-c2ncc(F)cn2)c1OC [Example 70]
[c] [2H]C([2H])([2H])NC(=O)c1nnc(NC(=O)C2CC2)cc1Nc1cccc(-c2ncc(C3CCOC3)cn2)c1OC (stereo not shown) [Example 55]
[d] [2H]C([2H])([2H])NC(=O)c1nnc(NC(=O)C2CC2)cc1Nc1cc(F)cc(-c2ncccn2)c1OC [Example 7]
Hey, quick one: sort these by IC50, largest value first please. Reply: labels, ordered per the request.
d, a, b, c
